compounds and their reported LD50
Test: Dose at which 50% of the animals were killed (LD50)
Set-up: species or system mice
Conditions: mouse, in vivo, ip; i.p. dosing × 5
Give just the numeric value; mg/kg need not be written.

Molecule | LD50 / mg/kg
CCOC(=O)c1nc(-c2ccc(F)cc2)[nH]c1N=NN(C)C | 200

Name the recorded LD50 for `CN(C)N=Nc1[nH]c(-c2ccccc2)nc1C(N)=O` . 240

Find the recorded LD50 belonging to `CCOC(=O)c1nc(-c2ccccc2)[nH]c1N=NN(C)C` and report it. 310
